B1: TPR t1 (parent)
chain: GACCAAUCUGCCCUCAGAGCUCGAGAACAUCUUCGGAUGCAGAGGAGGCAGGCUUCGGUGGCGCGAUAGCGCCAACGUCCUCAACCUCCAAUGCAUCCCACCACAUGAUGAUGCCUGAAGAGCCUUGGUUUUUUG

# Variants of: B1
# Procedure details: polymerase ribozyme fitness, log enrichment relative to wild type (log ratio); higher = more active; in vitro selection for triplet polymerase activity
Outcome measure: polymerase ribozyme fitness (log ratio)
Just the number, please, no unit after it.

Guide cases for polymerase ribozyme fitness (log ratio), answers given:
Macromolecule sequence	polymerase ribozyme fitness (log ratio)
GACCAAUCUGCCCUCAGAGCUCGAGAACAUCUUCGGAUGCAGAUGAGGCAGGCUUCGGUGGAGCGAUAGCGCCAACGUCCUCAACCUCCAAUGCAUCCCACCACAUGAUGAUGCCUGAAGAGCCUUGGUUUUUUG [G44U C62A]	-2.41
GACCAAUCUGCCCUGAGAGCUCGAGAACAUCUUCGGAUUCAGAGGAGACAGGCUUCGGUGGCGCGAUUGCGCCAACGUCCUCAACCUCCAAUGCAUCCCACCACAUGAUGAGGCCUGAAGAGCCUUGGUUUUUUG [C15G G39U G48A A68U U112G]	-7.39
GUCCAAUCUGCCCUCAGAGCUCGAGAACAUCUUCGGUUGCAGAGGAGGCAGGCUUCGGUGGCGCGAUAGCGACAACGACCUCAACCUCCAAUGCAUCCCACCACAUGAUGAUGCCUGAAGAGCGUUGGUUUUUUG [A2U A37U C72A U78A C124G]	-0.247
GACCAAUCUGCCCUCAGAGCUCGAGAACAUCUUCGGAUGCAGAGGAGGCAGGCUUCGGUGGCGCGAUAGCGCCAACGUCCUCAACCUCCAAUGCUUCCCACCACAUGAUGAUGCCUGAAAAGCCUUGGUUUUUUG [A95U G120A]	-0.385
GACCAAUCUGCCCUCAGGGCUCGAGAACAUCUUCGGAUGCAGAGGAGGCAGGCUUCGGUGGCGCGAUAGCGCCAACGUCCUCAACCUCCAAUGCAUCCCACCACAUGAUGAUGCCUGAAUAGCCUUGGUUUUUUG [A18G G120U]	-2.46
GACCAAUCUGCCCUCAGAGCUCGAGAUCAUCUUCGGAUGCAGAGGAGGCAGGCUUCGGUGGCGCGAUAGCGCCAACGUCCUCAACCUCCAAUGCAUACCACCACAUGAUGAUGCCUGAAGAGCCUUGGUUUUUUG [A27U C97A]	-7.67
GACCAAUCUGCCCUCAGAGCUCGAGAACAUCUUCGGAUGUAGAGGAGGCAGGCUUCGGUGGCGCGAUAGCGCCAACGUCCUCAACCUACAAUGCAUCCCACCACAUGAUGAUGCCUGAAGAGCCUUGGUUUUUUG [C40U C88A]	-0.911
GACCAAUCUGCCCUCAGCGCUCGAGAACAUCUUCGGAUGCAGAGGAUGCAGGCUUCGGUGGCGCGAUAGCGCCAACGUCCUCAACCUCCAAUGCAUCCCACCACAUGAUGUUGCCUGAAGAGCCUUGGGUUUUUG [A18C G47U A111U U129G]	-7.66

Field request: polymerase ribozyme fitness (log ratio) | item: GACCAAUCUGCCCUCAGGGCUCGAGAACAUCUUCGGAUGCAGAGGAGGCAGGCUUCGGUGGCGCGAUAGUGCCAACGUCCUAAACCUCCAAUGCAUCCCACCACAUGAUGAUGCCUGAAGAGCCUUGGUUUUUUG [A18G C70U C82A] -6.34
